System: Macrophoma kawatsukai
experimental.protocol: Fungicidal (bactericidal) activity in vitro, PDA colony diameter
Format: cell-based
condition.context: 50 mg/kg
parameter.measured: Bactericidal activity (%) Macrophoma kawatsukai
Answers are plain numbers, in %.

List reported Bactericidal activity (%) Macrophoma kawatsukai for each of these compounds:
1. C[C@@H]1N[C@H](C(=O)NCC2CCCO2)Cc2c1[nH]c1ccccc21 (stereo partly drawn)
2. C[C@@H]1N[C@H](C(=O)NNC(=O)c2ccncc2)Cc2c1[nH]c1ccccc21

OUT:
[27.8, 39.4]

Looking up C[C@@H]1N[C@H](C(=O)NNC(=O)c2ccccc2)Cc2c1[nH]c1ccccc21 , I found its Bactericidal activity (%) Macrophoma kawatsukai recorded as 45.5

----------
Tested on: Rhizoctonia solani
experimental.protocol: Fungicidal (bactericidal) activity in vitro, PDA colony diameter
Assay type: cell-based
condition.context: 50 mg/kg
parameter.measured: Bactericidal activity (%) Rhizoctonia solani
Numbers only, in %.

Worked set:
• C[C@@H]1N[C@H](C(=O)NN=Cc2ccncc2)Cc2c1[nH]c1ccccc21 = 23.7
• C[C@@H]1N[C@H](C(=O)NN=Cc2ccc3cc(O)ccc3c2)Cc2c1[nH]c1ccccc21 = 28.9
• C[C@@H]1N[C@H](C(=O)NN=CC2CCCCC2)Cc2c1[nH]c1ccccc21 = 5.6
• C[C@@H]1N[C@H](C(=O)NN=Cc2cccs2)Cc2c1[nH]c1ccccc21 = 46.1
• CCCCCC(=O)NNC(=O)[C@@H]1Cc2c([nH]c3ccccc23)[C@H](C)N1 = 1.4

Hi team, please reply with Bactericidal activity (%) Rhizoctonia solani for each item in this list.
1. C/C=C/C=NNC(=O)[C@@H]1Cc2c([nH]c3ccccc23)[C@H](C)N1
2. C[C@@H]1N[C@H](C(=O)NN=Cc2ccco2)Cc2c1[nH]c1ccccc21
3. COc1ccccc1C=NNC(=O)[C@@H]1Cc2c([nH]c3ccccc23)[C@H](C)N1
4. C[C@@H]1N[C@H](C(=O)NN=C2CCCCC2)Cc2c1[nH]c1ccccc21

OUT:
1: 6.6; 2: 32.9; 3: 32.9; 4: 15.3

----------
Test system: cotton bollworms
experimental.protocol: whole plant or invertebrate
condition.context: concentration 600 mg/kg
parameter.measured: Cotton bollworm Mortality (%)

- C[C@@H]1N[C@H](C(=O)NNC(=O)c2ccccc2)Cc2c1[nH]c1ccccc21 [Id-4]: 30%
- Cc1nccc2c1[nH]c1cc(OC(=O)N(C)C)ccc12 [Ia-6]: 20%
- CCOC(=O)c1cc2c([nH]c3ccccc32)c(C)n1 [Ia-10]: 40%
- CC(=NNC(=O)[C@@H]1Cc2c([nH]c3ccccc23)[C@H](C)N1)c1ccccc1 [Ic-27]: 30%
- C[C@@H]1N[C@H](C(=O)NCC2CCCO2)Cc2c1[nH]c1ccccc21 (stereo partly shown) [Ib-20]: 30%
- COc1ccccc1C=NNC(=O)[C@@H]1Cc2c([nH]c3ccccc23)[C@H](C)N1 [Ic-10]: 30%
- COc1ccc(C=NNC(=O)[C@@H]2Cc3c([nH]c4ccccc34)[C@H](C)N2)cc1 [Ic-8]: 35%
- C[C@@H]1N[C@H](C(=O)NNC(=O)C(C)(C)C)Cc2c1[nH]c1ccccc21 [Id-6]: 25%

Quick request: Cotton bollworm Mortality (%) for each listed item, please.
1. C[C@@H]1N[C@H](C(=O)NN=CC(C)(C)C)Cc2c1[nH]c1ccccc21 [Ic-26]
2. C[C@@H]1N[C@H](C(=O)NN=Cc2cccs2)Cc2c1[nH]c1ccccc21 [Ic-20]

OUT:
1. 20%
2. 20%

----------
System: corn borers
condition.context: in vivo
Give measured Corn borer Mortality (%) for each item. Keep answers brief.
Answer format: number, then unit.

Below are worked cases with known answers.
* CCOC(=O)[C@@H]1Cc2c([nH]c3ccccc23)[C@H](c2cccnc2)N1 | 5%
* C[C@@H]1N[C@H](C(=O)NN=Cc2ccncc2)Cc2c1[nH]c1ccccc21 | 20%
* O=C(O)/C=C/c1cc2c([nH]c3ccccc32)c(-c2cccnc2)n1 | 10%
* C[C@@H]1N[C@H](C(=O)NN=Cc2cccnc2)Cc2c1[nH]c1ccccc21 | 30%
* O=C(O)[C@@H]1Cc2c([nH]c3ccccc23)[C@H](c2cccnc2)N1 | 40%

Turning now to a further molecule:
Lab book: Corn borer Mortality (%) of C[C@@H]1N[C@H](C(=O)NN=Cc2ccccn2)Cc2c1[nH]c1ccccc21 noted as 20%

----------
Tested on: tobacco mosaic virus (TMV)
experimental.protocol: Anti-TMV in vivo therapeutic effect
Set-up: species or system tobacco mosaic virus (host Nicotiana tabacum L.cv.Xanthi NN)
condition.context: treatment dose 500 μg/mL
For each of the compounds below, state its Relative inhibition rate (%) In vivo therapy.
Numbers only, in %.

Here are 4 compounds together with their reported answers.
* C[C@@H]1N[C@H](C(=O)NN=Cc2ccccn2)Cc2c1[nH]c1ccccc21 [Ic-17] | 36.8
* C[C@@H]1N[C@H](C(=O)NN=Cc2ccc(Cl)cc2)Cc2c1[nH]c1ccccc21 [Ic-5] | 71.5
* C[C@@H]1N[C@H](C(=O)NN=Cc2ccc([N+](=O)[O-])cc2)Cc2c1[nH]c1ccccc21 [Ic-4] | 57.1
* C[C@@H]1N[C@H](C(=O)NN=Cc2ccc3c(c2)OCO3)Cc2c1[nH]c1ccccc21 [Ic-12] | 69

Now for another entry.
Form field Relative inhibition rate (%) In vivo therapy, entry O=C(O)/C=C/c1cc2c([nH]c3ccccc32)c(-c2cccs2)n1 [Ia-15] : 36.2

----------
Exercise: for every item that follows, state its recorded Relative inhibition rate (%) In vivo inactivation.
Tested on: tobacco mosaic virus (TMV)
experimental.protocol: Anti-TMV in vivo inactivation
Design: species or system tobacco mosaic virus (host Nicotiana tabacum L.cv.Xanthi NN)
condition.context: treatment dose 100 μg/mL
One number for each entry, in %.

Example entries and their recorded answers appear below.
* COc1ccccc1C=NNC(=O)[C@@H]1Cc2c([nH]c3ccccc23)[C@H](C)N1 | 0
* COc1ccc(C=NNC(=O)[C@@H]2Cc3c([nH]c4ccccc34)[C@H](C)N2)cc1OC | 20.3
* C[C@@H]1N[C@H](C(=O)NNC(=O)C2CCCC2)Cc2c1[nH]c1ccccc21 | 20.3
* C[C@@H]1N[C@H](C(=O)NNC(=O)c2ccccc2)Cc2c1[nH]c1ccccc21 | 0

Noted for CCOC(=O)C1Cc2c([nH]c3ccccc23)C(C)=N1 (centres unmarked) : its Relative inhibition rate (%) In vivo inactivation reads 0

----------
Tested on: Rhizoctonia solani
experimental.protocol: Fungicidal (bactericidal) activity in vitro, PDA colony diameter
Format: cell-based
condition.context: 50 mg/kg
parameter.measured: Bactericidal activity (%) Rhizoctonia solani
Answers are plain numbers, in %.

Solved entries:
- O=C(O)/C=C/c1cc2c([nH]c3ccccc32)c(-c2cccnc2)n1: 0.0
- C[C@@H]1N[C@H](C(=O)NN=Cc2ncc[nH]2)Cc2c1[nH]c1ccccc21: 15.8

I need Bactericidal activity (%) Rhizoctonia solani for every entry listed below, if you could help.
1. C[C@@H]1N[C@H](C(=O)NN=Cc2cccnc2)Cc2c1[nH]c1ccccc21
2. COc1ccc(C=NNC(=O)[C@@H]2Cc3c([nH]c4ccccc34)[C@H](C)N2)cc1
3. C[C@@H]1N[C@H](C(=O)NN=CC(C)(C)C)Cc2c1[nH]c1ccccc21

OUT:
1: 39.5; 2: 59.2; 3: 8.3

Dear colleague, could you please provide Bactericidal activity (%) Rhizoctonia solani for the molecules listed below?
1. CCOC(=O)c1cc2c([nH]c3ccccc32)c(C)n1
2. C[C@@H]1N[C@H](C(=O)NCC2CCCO2)Cc2c1[nH]c1ccccc21 (stereo partly drawn)
3. C[C@@H]1N[C@H](C(=O)NN=Cc2ccc3c(c2)OCO3)Cc2c1[nH]c1ccccc21
4. C[C@@H]1N[C@H](C(=O)NN=Cc2ccc(Cl)cc2)Cc2c1[nH]c1ccccc21

OUT:
39.3
13.2
50.0
81.6

----------
System: Fusarium fujikuroi
experimental.protocol: Fungicidal (bactericidal) activity in vitro, PDA colony diameter
Type: cell-based
condition.context: 50 mg/kg
parameter.measured: Bactericidal activity (%) Fusarium fujikuroi
Answers are plain numbers, in %.

Solved entries:
* C[C@@H]1N[C@H](C(=O)NN=Cc2ccco2)Cc2c1[nH]c1ccccc21 | 28.6
* CC(=NNC(=O)[C@@H]1Cc2c([nH]c3ccccc23)[C@H](C)N1)c1ccccc1 | 29.4
* C[C@@H]1N[C@H](C(=O)NN=Cc2ccc(C(C)(C)C)cc2)Cc2c1[nH]c1ccccc21 | 57.1
* O=C(O)/C=C/c1cc2c([nH]c3ccccc32)c(-c2cccnc2)n1 | 28.6
* CCOC(=O)C1Cc2c([nH]c3ccccc23)CN1 (stereo not shown) | 14.3

Parameter requested: Bactericidal activity (%) Fusarium fujikuroi. Apply to each item below.
1. C[C@@H]1N[C@H](C(=O)NN=Cc2ccc(Cl)cc2Cl)Cc2c1[nH]c1ccccc21
2. CCOC(=O)C1Cc2c([nH]c3ccccc23)C(C)=N1 (stereo not shown)
3. C[C@@H]1N[C@H](C(=O)NN=Cc2ccccn2)Cc2c1[nH]c1ccccc21
4. COc1cccc(C=NNC(=O)[C@@H]2Cc3c([nH]c4ccccc34)[C@H](C)N2)c1
5. CC(=NNC(=O)[C@@H]1Cc2c([nH]c3ccccc23)[C@H](C)N1)C(C)(C)C

OUT:
1. 47.1
2. 28.6
3. 21.4
4. 57.1
5. 23.5
